Catalogue of T1/2 values
Biological target: T1, Human GDF8 homodimer (mature human Growth and Differentiation Factor-8) (human, UniProt O14793 267-375)
T1 construct: also called hGDF8; myostatin
T1 sequence: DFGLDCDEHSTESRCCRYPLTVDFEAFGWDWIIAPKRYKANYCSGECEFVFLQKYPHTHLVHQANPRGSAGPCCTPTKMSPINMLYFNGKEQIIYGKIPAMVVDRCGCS
Assay: SPR, antibody captured, 25 nM antigen
QUANTITY_KIND: T1/2

{"columns": ["BINDER", "QUANTITY_KIND", "REPORTED"],
 "data": [
  ["9B4-3 (antibody, V domains shown) VH: EVQLLESGGGLVQPGESLRLSCAASGFTFSSYAMNWVRQAPGKGLEWVSTISGSGGYIYYADSVKGRFTISRDNSKNTLYLQMNSLRAEDTAVYFCAKDSRYNWNYGNFDYWGQGTLVTVSS VL: EIVMTQSPATLSVSPGERATLSCRASQNVSSNLAWNKQKPGQAPRLLIYATSTRATGVPARFSASGSGTDFALTINSLQSEDFAVYYCQQYNNWPLTFGGGTKVEIK", "T1/2", "0.833 h"],
  ["1A2 (antibody, V domains shown, also called 1A2 mAb) VH: EVQLLESGGGLVQPGGSLRLSCAASGFTSITYAMSWVRQAPGKGLEWVSAISVSGTNTYYADSVKGRFTISRDKSKNMLYLQMNSLRAEDTAVYYCAKDLLHNWKYGTFDIWGQGTMVTVSS VL: EIVMTQSPATLSVSPGERATLSCRASQSVDSNLVWYQQKPGQVPRLLIYGASTRATGIPARFSGSGSGTEFTLTISSLQSEDFAVYYCQQYNKWPLTFGGGTKVEIK", "T1/2", "1 h"],
  ["8D12-1 (antibody, V domains shown, probably the same antibody as 8D12) VH: QVQLVESGGGVVQPGRSLRLSCAASGFTFSRYGIHWVRQAPGKGLEWVAVISYDGSDEYYVDSVKGRFSISRDNSKNTLYLQMNSLRPADSAVYYCVKGDLELGFDYWGQGTLVTVSS VL: DIVMTQAAPSIPVIPGESVSMSCRSSKSLLYSNGHTYVYWFVQRPGQSPQLLIYRMSNLASGVPDRFSGSGSGTAFTLRISRVEAEDVGVYYCMQNLEFPLTFGAGTKLELK", "T1/2", "1.58 h"]
]}
